For each of the molecules below, state its LVL THP1 HTRF YMIN.
- measured.on: IRAK4 (Homo sapiens)
- Construct: endogenous in cells; host or cells: THP-1 cells
- Sequence (Q9NWZ3 whole entry): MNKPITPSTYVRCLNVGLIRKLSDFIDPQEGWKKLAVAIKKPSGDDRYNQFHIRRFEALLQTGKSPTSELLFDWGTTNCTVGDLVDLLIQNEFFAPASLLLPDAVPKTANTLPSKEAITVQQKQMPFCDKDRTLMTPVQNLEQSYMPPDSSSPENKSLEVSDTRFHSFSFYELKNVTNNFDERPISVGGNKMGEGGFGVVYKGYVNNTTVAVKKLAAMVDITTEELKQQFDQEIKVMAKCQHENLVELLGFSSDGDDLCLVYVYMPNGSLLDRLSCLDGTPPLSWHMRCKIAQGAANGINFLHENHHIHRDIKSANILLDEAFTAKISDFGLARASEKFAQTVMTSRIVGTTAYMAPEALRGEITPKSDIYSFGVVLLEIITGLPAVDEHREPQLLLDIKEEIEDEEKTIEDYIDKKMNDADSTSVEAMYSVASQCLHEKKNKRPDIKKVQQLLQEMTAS
- experiment.summary: LVL THP1 HTRF (THP1 Homogeneous Time Resolved Fluorescence)
- Format: cell-based
- experimental.context: THP1 cells, 18 h incubation with compound
Give the value in % but do not write % after it.

Param item = N#Cc1cnc2c(cnn2-c2cc(N[C@@H]3CCOC3)c(-n3cc([C@H]4CC[C@H](CCN5CCN(c6ccc(C7CCC(=O)NC7=O)cc6)CC5)CC4)nn3)cn2)c1 (stereo in doubt) ; retrieve measured LVL THP1 HTRF YMIN.
3.1

What do we get for CC[C@@H]1CN(CC[C@H]2CC[C@H](c3cn(-c4cnc(-n5ncc6cc(C#N)cnc65)cc4N[C@H](C)C#N)nn3)CC2)CCN1c1ccc(N2CCC(=O)NC2=O)cc1 [P-393] ?
−3.4

Same lookup for C[C@H](C#N)Nc1cc(-n2ncc3cc(C#N)cnc32)ncc1-n1cc([C@H]2CC[C@H](CCN3CCC(c4ccc(N5CCC(=O)NC5=O)cc4)CC3)CC2)nn1 , please.
22.4

Try this molecule too: CCc1nc2c(cnn2-c2cc(N[C@H](C)C#N)c(C(=O)N[C@H]3CC[C@H](CCN4CCN(c5ccc(C6CCC(=O)NC6=O)cc5)CC4)CC3)cn2)cc1C#N (some centres unmarked)
1.0

How about this molecule: C[C@H](C#N)Nc1cc(-n2ncc3cc(C#N)cnc32)ncc1-c1cc(C2CCC(CCN3CCN(c4ccc(C5CCC(=O)NC5=O)cc4)CC3)CC2)no1 (some centres unmarked)
1.1

// same read-out, input: C[C@H](C#N)Nc1cc(-n2ncc3cc(C#N)cnc32)ncc1C(=O)N[C@H]1CC[C@H](CCN2CCC(c3ccc([C@@]4(F)CCC(=O)NC4=O)cc3)CC2)CC1 (single isomer, unassigned)
−0.4

Can you check C[C@H](C#N)Nc1cc(-n2ncc3cc(C#N)c(N)nc32)ncc1-n1cc(C2CCC(CCN3CCN(c4ccc([C@@]5(C)CCC(=O)NC5=O)cc4)[C@@H](C)C3)CC2)nn1 (some centres unmarked) next?
2.6

Moving on to the next molecule: N#Cc1cnc2c(cnn2-c2cc(NCC3COC3)c(-n3cc([C@H]4CC[C@H](CCN5CCN(c6ccc(C7CCC(=O)NC7=O)cc6)CC5)CC4)nn3)cn2)c1 (some centres unmarked)
7.8

What do you get for C[C@H](C#N)Nc1cc(-n2ncc3cc(C#N)c(N)nc32)ncc1-n1cc([C@H]2CC[C@H](CCN3CCN(c4ccc(N5CCC(=O)NC5=O)cn4)[C@H](C)C3)CC2)nn1 ?
−3.4

Further, for N#Cc1cnc2c(cnn2-c2cc(NC3CCCC3)c(-n3cc([C@H]4CC[C@H](CCN5CCN(c6ccc(N7CCC(=O)NC7=O)cc6)CC5)CC4)nn3)cn2)c1 ?
15.2
